Tested on: T47D
Test Summary: NCI tumour cell line growth inhibition, 48 h
Activity calls are given as the source filed them. Cut-off read from the data, not from the text of the source: active = GI50 up to about 1.1 µM and inactive = higher.
Measured GI50 by item
Test Readout: GI50

INSERT INTO measurements (molecule, test_result) VALUES
  ('O=C(c1ccccn1)C1(N2CCCCC2)CCCCC1', '46 µM (inactive)'),
  ('O=c1[nH]nc(-c2ccccc2)n1/N=C/c1cccc([N+](=O)[O-])c1', '> 100 µM (inactive)'),
  ('NC1=NC(=O)C2(NN1)c1ccccc1-c1ccccc12', '2.42 µM (inactive)'),
  ('CCOC(C[Se]CC(OCC)OCC)OCC', '> 100 µM (inactive)'),
  ('CN(C)C1C(=O)C(C(N)=O)=C(O)C2(O)C(O)=C3C(=O)c4c(O)cccc4C(C)(O)C3CC12 (stereo not given)', '> 100 µM (inactive)'),
  ('O=C1CC(n2cccc2)c2cc(Br)sc21 (stereo not given)', '48.3 µM (inactive)'),
  ('N#C[BH2-][n+]1cn(C2CC(O)C(COP(=O)(O)OC3CC(n4ccc(N)nc4=O)OC3CO)O2)c2nc(N)[nH]c(=O)c21 (stereo not given)', '> 100 µM (inactive)'),
  ('COc1cc(C(=O)n2c3ccc(Br)cc3c3nc4ccccc4nc32)cc(OC)c1OC', '> 100 µM (inactive)'),
  ('O=C(NC(=O)c1cc(-c2ccccc2)n[nH]1)c1ccccc1', '> 100 µM (inactive)'),
  ('C=CCOc1ccccc1/N=N/C(C#N)=N\Nc1ccccc1OCC=C', '> 100 µM (inactive)');

src = ChEMBL document CHEMBL1201862
